# Tested on: MCF7
# assaySummary: Antiproliferative activity against human MCF7 cells assessed as cell growth inhibition at 10 uM incubated for 48 hrs by sulforhodamine B assay relative to control
# Type: functional
reportedMetric: inhibition at 10 µM (%)
Answer format: numeric, % implied, no suffix.

Request: Tell me inhibition at 10 µM of `CCc1ccc(-c2cn3ccnc3c(-c3ccc4ncn(Cc5ccccc5)c4c3)n2)cc1` when tested on MCF7.
Response: 58

Request: Tell me inhibition at 10 µM of `c1ccc2c(-c3cn4ccnc4c(-c4ccc5ncn(C6CCCCC6)c5c4)n3)cccc2c1` when tested on MCF7.
Response: 13

Request: Tell me inhibition at 10 µM of `c1ccc(Cn2cnc3ccc(-c4nc(-c5ccc6c(c5)ncn6C5CCCCC5)cn5ccnc45)cc32)cc1` when tested on MCF7.
Response: 98

Request: Tell me inhibition at 10 µM of `Brc1cn2ccnc2c(-c2ccc3ncn(C4CCCCC4)c3c2)n1` when tested on MCF7.
Response: 47.6

Request: Tell me inhibition at 10 µM of `Brc1ccc(-c2cn3ccnc3c(-c3ccc4ncn(C5CCCCC5)c4c3)n2)cc1` when tested on MCF7.
Response: 46.4

Request: Tell me inhibition at 10 µM of `COc1ccccc1-c1cn2ccnc2c(-c2ccc3ncn(C4CCCCC4)c3c2)n1` when tested on MCF7.
Response: 8.4

Request: Tell me inhibition at 10 µM of `c1ccc(-c2cn3ccnc3c(-c3ccc4ncn(C5CCCCC5)c4c3)n2)cc1` when tested on MCF7.
Response: 38

Request: Tell me inhibition at 10 µM of `Fc1ccc(-c2cn3ccnc3c(-c3ccc4ncn(C5CCCCC5)c4c3)n2)cc1` when tested on MCF7.
Response: 9.17

Request: Tell me inhibition at 10 µM of `O=Cc1ccc(-c2cn3ccnc3c(-c3ccc4ncn(Cc5ccccc5)c4c3)n2)cc1` when tested on MCF7.
Response: 47.8

Request: Tell me inhibition at 10 µM of `Fc1ccccc1-c1cn2ccnc2c(-c2ccc3ncn(C4CCCCC4)c3c2)n1` when tested on MCF7.
Response: 11.2

Request: Tell me inhibition at 10 µM of `COc1ccc(-c2cn3ccnc3c(-c3ccc4ncn(C5CCCCC5)c4c3)n2)cc1` when tested on MCF7.
Response: 80.2

Request: Tell me inhibition at 10 µM of `CC(=O)c1ccc(-c2cn3ccnc3c(-c3ccc4ncn(C5CCCCC5)c4c3)n2)cc1` when tested on MCF7.
Response: 12

Request: Tell me inhibition at 10 µM of `FC(F)(F)c1cccc(-c2cn3ccnc3c(-c3ccc4ncn(C5CCCCC5)c4c3)n2)c1` when tested on MCF7.
Response: 19.9

Request: Tell me inhibition at 10 µM of `O=Cc1ccc(-c2cn3ccnc3c(-c3ccc4ncn(C5CCCCC5)c4c3)n2)cc1` when tested on MCF7.
Response: 47.8

Request: Tell me inhibition at 10 µM of `Cc1cccc(-c2cn3ccnc3c(-c3ccc4ncn(Cc5ccccc5)c4c3)n2)c1` when tested on MCF7.
Response: 22.2

Request: Tell me inhibition at 10 µM of `c1ccc(Cn2cnc3ccc(-c4nc(-c5cccc6ccccc56)cn5ccnc45)cc32)cc1` when tested on MCF7.
Response: 29.2

Request: Tell me inhibition at 10 µM of `Clc1ccc(-c2cn3ccnc3c(-c3ccc4ncn(C5CCCCC5)c4c3)n2)cc1` when tested on MCF7.
Response: 21.8

Request: Tell me inhibition at 10 µM of `c1cn2cc(-c3ccc4c(c3)ncn4C3CCCCC3)nc(-c3ccc4ncn(C5CCCCC5)c4c3)c2n1` when tested on MCF7.
Response: 19.1

Request: Tell me inhibition at 10 µM of `c1cn2cc(-c3ccc4ncn(C5CCCCC5)c4c3)nc(-c3ccc4ncn(C5CCCCC5)c4c3)c2n1` when tested on MCF7.
Response: 45

====

# System: A549
# assaySummary: Antiproliferative activity against human A549 cells assessed as cell growth inhibition at 10 uM incubated for 48 hrs by sulforhodamine B assay relative to control
# Assay type: functional
reportedMetric: inhibition at 10 µM (%)
Answer format: numeric, % implied, no suffix.

Request: Tell me inhibition at 10 µM of `FC(F)(F)c1cccc(-c2cn3ccnc3c(-c3ccc4ncn(C5CCCCC5)c4c3)n2)c1` when tested on A549.
Response: 5.15

Request: Tell me inhibition at 10 µM of `c1ccc(-c2cn3ccnc3c(-c3ccc4ncn(C5CCCCC5)c4c3)n2)cc1` when tested on A549.
Response: 33.3

Request: Tell me inhibition at 10 µM of `c1cn2cc(-c3ccsc3)nc(-c3ccc4ncn(C5CCCCC5)c4c3)c2n1` when tested on A549.
Response: 3.97

Request: Tell me inhibition at 10 µM of `c1ccc(Cn2cnc3ccc(-c4nc(-c5cccc6ccccc56)cn5ccnc45)cc32)cc1` when tested on A549.
Response: 7.31

Request: Tell me inhibition at 10 µM of `Clc1ccc(-c2cn3ccnc3c(-c3ccc4ncn(C5CCCCC5)c4c3)n2)cc1` when tested on A549.
Response: 11.6

Request: Tell me inhibition at 10 µM of `c1cn2cc(-c3ccc4ncn(C5CCCCC5)c4c3)nc(-c3ccc4ncn(C5CCCCC5)c4c3)c2n1` when tested on A549.
Response: 57.6

Request: Tell me inhibition at 10 µM of `c1csc(-c2cn3ccnc3c(-c3ccc4ncn(C5CCCCC5)c4c3)n2)c1` when tested on A549.
Response: 5.33

Request: Tell me inhibition at 10 µM of `c1ccc(Cn2cnc3ccc(-c4nc(-c5ccc6c(c5)ncn6C5CCCCC5)cn5ccnc45)cc32)cc1` when tested on A549.
Response: -5.05

Request: Tell me inhibition at 10 µM of `Fc1ccc(-c2cn3ccnc3c(-c3ccc4ncn(C5CCCCC5)c4c3)n2)cc1` when tested on A549.
Response: 12.8

Request: Tell me inhibition at 10 µM of `c1cn2cc(-c3ccc4c(c3)ncn4C3CCCCC3)nc(-c3ccc4ncn(C5CCCCC5)c4c3)c2n1` when tested on A549.
Response: 25.3

Request: Tell me inhibition at 10 µM of `Fc1ccccc1-c1cn2ccnc2c(-c2ccc3ncn(C4CCCCC4)c3c2)n1` when tested on A549.
Response: 9.1

Request: Tell me inhibition at 10 µM of `Cc1cccc(-c2cn3ccnc3c(-c3ccc4ncn(Cc5ccccc5)c4c3)n2)c1` when tested on A549.
Response: 14.9

Request: Tell me inhibition at 10 µM of `CCc1ccc(-c2cn3ccnc3c(-c3ccc4ncn(Cc5ccccc5)c4c3)n2)cc1` when tested on A549.
Response: 45.4

Request: Tell me inhibition at 10 µM of `Brc1ccc(-c2cn3ccnc3c(-c3ccc4ncn(C5CCCCC5)c4c3)n2)cc1` when tested on A549.
Response: 15.3

Request: Tell me inhibition at 10 µM of `COc1ccc(-c2cn3ccnc3c(-c3ccc4ncn(C5CCCCC5)c4c3)n2)cc1` when tested on A549.
Response: 68.6

Request: Tell me inhibition at 10 µM of `COc1ccccc1-c1cn2ccnc2c(-c2ccc3ncn(C4CCCCC4)c3c2)n1` when tested on A549.
Response: 13.9

Request: Tell me inhibition at 10 µM of `Brc1cn2ccnc2c(-c2ccc3ncn(C4CCCCC4)c3c2)n1` when tested on A549.
Response: 9.36

====

# Tested on: OVCAR-4
# assaySummary: Antiproliferative activity against human OVCAR-4 cells assessed as cell growth inhibition at 10 uM incubated for 48 hrs by sulforhodamine B assay relative to control
# Format: functional
reportedMetric: inhibition at 10 µM (%)
Answer format: numeric, % implied, no suffix.

Request: Annotate the molecule `CCc1ccc(-c2cn3ccnc3c(-c3ccc4ncn(Cc5ccccc5)c4c3)n2)cc1` with its measured inhibition at 10 µM.
Response: 35.1

Request: Annotate the molecule `Brc1ccc(-c2cn3ccnc3c(-c3ccc4ncn(C5CCCCC5)c4c3)n2)cc1` with its measured inhibition at 10 µM.
Response: 10.5

Request: Annotate the molecule `Clc1ccc(-c2cn3ccnc3c(-c3ccc4ncn(C5CCCCC5)c4c3)n2)cc1` with its measured inhibition at 10 µM.
Response: 4.57

Request: Annotate the molecule `Fc1ccc(-c2cn3ccnc3c(-c3ccc4ncn(C5CCCCC5)c4c3)n2)cc1` with its measured inhibition at 10 µM.
Response: 5.73

Request: Annotate the molecule `c1ccc(Cn2cnc3ccc(-c4nc(-c5cccc6ccccc56)cn5ccnc45)cc32)cc1` with its measured inhibition at 10 µM.
Response: 7.88

Request: Annotate the molecule `O=Cc1ccc(-c2cn3ccnc3c(-c3ccc4ncn(Cc5ccccc5)c4c3)n2)cc1` with its measured inhibition at 10 µM.
Response: 16.9

Request: Annotate the molecule `O=Cc1ccc(-c2cn3ccnc3c(-c3ccc4ncn(C5CCCCC5)c4c3)n2)cc1` with its measured inhibition at 10 µM.
Response: 16.9

Request: Annotate the molecule `c1cn2cc(-c3ccc4ncn(C5CCCCC5)c4c3)nc(-c3ccc4ncn(C5CCCCC5)c4c3)c2n1` with its measured inhibition at 10 µM.
Response: 22.8

Request: Annotate the molecule `c1ccc(-c2cn3ccnc3c(-c3ccc4ncn(C5CCCCC5)c4c3)n2)cc1` with its measured inhibition at 10 µM.
Response: 34.5

Request: Annotate the molecule `Brc1cn2ccnc2c(-c2ccc3ncn(C4CCCCC4)c3c2)n1` with its measured inhibition at 10 µM.
Response: 9.15

Request: Annotate the molecule `COc1ccccc1-c1cn2ccnc2c(-c2ccc3ncn(C4CCCCC4)c3c2)n1` with its measured inhibition at 10 µM.
Response: 13.2
